B1: MLH1 (parent)
chain: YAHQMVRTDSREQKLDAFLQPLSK

Variants of: B1
assayExplanation: protein stability index of a GFP-peptide fusion (GPS, HEK-293T) (PSI 1-6); higher = more stable;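 also: lentivirally expressed fusions sorted by FACS into six bins by GFP to DsRed ratio, PSI derived from sequencing read proportions per bin multiplied by bin number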
conditionDetails: c terminus: a fixed tail appended
Examples of variants with documented protein stability index follow.
Answer with a number only.

Q. Name the recorded protein stability index of the item "S23E" in your answer.
A. 2.86

Q. Name the recorded protein stability index of the item "M5L" in your answer.
A. 2.49

Q. Name the recorded protein stability index of the item "R11P" in your answer.
A. 2.46

Q. Name the recorded protein stability index of the item "L19H" in your answer.
A. 3.12

Q. Name the recorded protein stability index of the item "K14D" in your answer.
A. 2.46

Q. Name the recorded protein stability index of the item "Q13W" in your answer.
A. 2.18
